Reference source: patent US10857153B2

Known EC50 of a selection of molecules
Target: human TLR7 (Homo sapiens, UniProt Q9NYK1)
Construct: host or cells: HEK293 (HEK-Blue™ hTLR7)
Sequence (Q9NYK1 27-1049): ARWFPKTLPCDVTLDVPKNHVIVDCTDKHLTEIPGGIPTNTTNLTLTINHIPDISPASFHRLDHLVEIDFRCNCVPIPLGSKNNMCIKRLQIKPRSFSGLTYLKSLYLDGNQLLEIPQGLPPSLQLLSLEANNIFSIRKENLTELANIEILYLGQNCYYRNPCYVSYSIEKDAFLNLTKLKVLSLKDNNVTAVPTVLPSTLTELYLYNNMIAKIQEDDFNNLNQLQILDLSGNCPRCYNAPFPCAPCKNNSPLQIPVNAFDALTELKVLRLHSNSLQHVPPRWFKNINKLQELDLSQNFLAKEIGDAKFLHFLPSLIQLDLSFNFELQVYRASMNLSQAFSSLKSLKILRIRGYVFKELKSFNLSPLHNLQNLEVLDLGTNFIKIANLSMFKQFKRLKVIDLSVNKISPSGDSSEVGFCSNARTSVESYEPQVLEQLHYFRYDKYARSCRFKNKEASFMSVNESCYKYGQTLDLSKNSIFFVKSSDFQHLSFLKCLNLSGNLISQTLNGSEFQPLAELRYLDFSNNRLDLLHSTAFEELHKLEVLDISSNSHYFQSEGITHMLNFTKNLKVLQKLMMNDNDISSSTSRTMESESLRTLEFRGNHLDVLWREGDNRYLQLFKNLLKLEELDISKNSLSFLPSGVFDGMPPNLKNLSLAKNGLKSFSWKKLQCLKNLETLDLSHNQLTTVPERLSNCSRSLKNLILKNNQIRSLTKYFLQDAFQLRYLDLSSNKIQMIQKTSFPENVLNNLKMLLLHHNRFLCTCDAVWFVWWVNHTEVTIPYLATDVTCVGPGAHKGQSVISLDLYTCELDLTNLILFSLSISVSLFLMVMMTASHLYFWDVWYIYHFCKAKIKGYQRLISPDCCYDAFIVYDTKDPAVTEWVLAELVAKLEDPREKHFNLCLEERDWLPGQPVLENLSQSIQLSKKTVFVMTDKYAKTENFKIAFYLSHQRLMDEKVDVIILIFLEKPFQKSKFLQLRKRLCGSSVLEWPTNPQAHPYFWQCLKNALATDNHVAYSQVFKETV
Experiment: HEK-TLR7 assay (HEK-Blue hTLR7 cells, SEAP reporter)
Assay type: cell-based
Conditions: 16 h
ASSAY_READOUT: EC50 (nM)

{"MOLECULE": "CCCC[C@@H](CCO)Nc1nc(N)nc(CCC(=O)O)c1Cc1cc(Cc2nn[nH]n2)ccc1OC", "ASSAY_READOUT": "EC50", "RECORDED_VALUE": 270}
{"MOLECULE": "CCCC[C@@H](CCS(C)(=O)=O)Nc1nc(N)nc(CCC(=O)O)c1Cc1cc(CC(=O)O)ccc1OC [Compound 50, reference compound]", "ASSAY_READOUT": "EC50", "RECORDED_VALUE": 260}
{"MOLECULE": "CCCCOc1nc(N)c2[nH]c(=O)n(CCCN(CCCN3CCOCC3)Cc3cccc(CC(=O)OC)c3)c2n1 [AZD8848, reference compound]", "ASSAY_READOUT": "EC50", "RECORDED_VALUE": 37}
{"MOLECULE": "CCCC[C@@H](CCO)Nc1nc(N)nc(CCC(=O)O)c1Cc1cc(CC(=O)O)ccc1OC", "ASSAY_READOUT": "EC50", "RECORDED_VALUE": 270}
{"MOLECULE": "CCCC[C@@H](CCS(C)(=O)=O)Nc1nc(N)nc(CCC(=O)O)c1Cc1cc(Cc2nn[nH]n2)ccc1OC", "ASSAY_READOUT": "EC50", "RECORDED_VALUE": 230}
